# protocolNotes: qHTS Assay for Inhibitors of Fructose-1,6-bisphosphate Aldolase from Giardia Lamblia: Coupling assay counterscreen; note: % is set by controls: 0 for no effect and ±100 for the full control effect
# recordedConditions: coupling enzyme system counterscreen, AmpLite Red fluorescence; at 58.2 µM (top of the series)
Hit rate of the full screen: of about 290,000 compounds, about 2,000 (0.69%) were called active. The sample holds actives, similar compounds and a random draw of the others, so the mix is not that of the screen.
Each entry below carries its recorded activity change, negative = inhibition.

{"columns": ["molecule", "activity change, negative = inhibition / %"],
 "data": [
  ["COCc1cc(C)n(CC(=O)NCC2CCCO2)c(=O)c1C#N (stereo not drawn)", 0.717],
  ["CC(C(=O)NCCc1ccc(S(N)(=O)=O)cc1)N1C(=O)CC(C)(C)Sc2ccccc21 (stereo not drawn)", 5.69],
  ["Cc1cc2nc3c(=O)n(Cc4ccccc4)c(=O)[nH]c3nc2cc1N", -26.3]
]}
